B1: tRNA (parent)
chain: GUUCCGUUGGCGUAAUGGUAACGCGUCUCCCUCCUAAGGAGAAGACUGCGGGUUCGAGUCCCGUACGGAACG

Variants of: B1
Experiment: yeast fitness relative to wild type (ratio to wild type); higher = fitter; tRNA-Arg(CCU), competitive growth, 37 C, YPD
Fewer inactive variants are shown than the library holds.
Label t when yeast fitness is at or above 0.7; anything below gets f.

Observe how each entry below is paired with its result.
| polymer sequence | class |
| --- | --- |
| GUUCCGUUGGCGUAAUGGUAACGCGUUUCCCUCCUCAGGAGUAGAUUGCGGGUUCGAGUCCUAUACGGAACG [C27U A36C A42U C46U C62U G63A] | f |
| GUUCCGUUAGCGUAAUGGUAACGCGUCUCCCUCCUAAGGAGAAGACUGCGGGUUGCAGUCCCGUACGGAACG [G9A C55G G56C] | f |
| GUUCCGUUGGCGUAAUGGUAACGCGUCUCGCUCCUAAGGAGAAGAAGGAGGAUUCGACUCCCGGGCGGAACG [C30G C46A U47G C49A G52A G58C U64G A65G] | f |
| GUUCCGUAGGCGUAAUGGUAACGCGCCUCCCUCCUAAAGAGAAGACUGCGGGUUCGAGUCCCGUACGGAACG [U8A U26C G38A] | f |
| GUUCCGUUGGCGUAAUGGUAACGCGUCUCUCUCCUAAGGAGAAGACUGCGGGUUCGAGUCCAGUACGGAACG [C30U C62A] | t |

IN: Decide: yeast fitness of GUUCCAUUGGCGUAAUGGAAACGCGUCUCCCUCCUAAGGAGAAGACUGCGGGAUCGAGUACCGUACGGUACG [G6A U19A U53A C60A A69U] >= 0.7?
OUT: f

IN: Decide: yeast fitness of GUACCGUUGGCGUAAUGGUAACGCGUCUCCCUCCUAAGGGGGAGACUGCGGGUUCGCGUCCCGUAUGGAACG [U3A A40G A42G A57C C66U] >= 0.7?
OUT: f

IN: Decide: yeast fitness of GUUCCGUUCGCGUAAUGGUAACGCGUCGCCCUCCUAAGGAGAAGACUGCGGGUUCGAGUCCCGUCCGGAACG [G9C U28G A65C] >= 0.7?
OUT: f

IN: Decide: yeast fitness of GUUCCAUUGGCGUAAUGGUUACGCGUCUCCCUCCUAAGGAGAAGACUGCGGGUUCGAGUCCUGUGCGGAACG [G6A A20U C62U A65G] >= 0.7?
OUT: f

IN: Decide: yeast fitness of GUUCUGUUGGCGUAAUGGUAAUGCGUCUCCCUCAUAAGGAGUACACUGCGGGUUCGAGUCACGUACGGAACG [C5U C22U C34A A42U G44C C61A] >= 0.7?
OUT: f

IN: Decide: yeast fitness of GUUCGGUUGGCGUAAUGGUGACGCGUCUCCCUCCUAAGGAGAAGACUGCGGGUUCGAGUCCUGUAGGGAACG [C5G A20G C62U C66G] >= 0.7?
OUT: f

IN: Decide: yeast fitness of GUUCCAUUGGCGUAAUGGUACCGCGUCUCCCUCCUAAGGAGAAGACAGCGGGUUCAAGUCCCGUACGGAACG [G6A A21C U47A G56A] >= 0.7?
OUT: f

IN: Decide: yeast fitness of GAUAGGUUGGCGUAAUGGUAACGCGUCUCCCUCCUAAGGAGAAGACUGCGGGUUCGAGUCCCGUGCGGAACG [U2A C4A C5G A65G] >= 0.7?
OUT: f

IN: Decide: yeast fitness of GUUCCGUUGGCGUAUUGGUAACGCGUCUCCCUCCUAAGGAGAAGACUGCGGGUUCGAGUCCCAUACGGCACG [A15U G63A A69C] >= 0.7?
OUT: f

IN: Decide: yeast fitness of GUUGCGUUGGCGUAAUGGUAACGCCUCUCCCUCCUAAGGAGAAGACUGCGGGUUCGAGUCCCGUACGGAACG [C4G G25C] >= 0.7?
OUT: t

IN: Decide: yeast fitness of GUUUCGUUGGCGUUAUGGUAACGCGUCUCCCUCCUAAGGAGAAGACUGCCCGUUCAAGUCCCGUACGGAACG [C4U A14U G50C G51C G56A] >= 0.7?
OUT: f

Where do the numbers come from? From the RNAGym collection of RNA variant scans (doi:10.1126/science.aae0568).
